biological target: Inhibitor of nuclear factor kappa-B kinase subunit beta (Homo sapiens); assay: Inhibition of human recombinant IKK2
Sequence (O14920 whole entry): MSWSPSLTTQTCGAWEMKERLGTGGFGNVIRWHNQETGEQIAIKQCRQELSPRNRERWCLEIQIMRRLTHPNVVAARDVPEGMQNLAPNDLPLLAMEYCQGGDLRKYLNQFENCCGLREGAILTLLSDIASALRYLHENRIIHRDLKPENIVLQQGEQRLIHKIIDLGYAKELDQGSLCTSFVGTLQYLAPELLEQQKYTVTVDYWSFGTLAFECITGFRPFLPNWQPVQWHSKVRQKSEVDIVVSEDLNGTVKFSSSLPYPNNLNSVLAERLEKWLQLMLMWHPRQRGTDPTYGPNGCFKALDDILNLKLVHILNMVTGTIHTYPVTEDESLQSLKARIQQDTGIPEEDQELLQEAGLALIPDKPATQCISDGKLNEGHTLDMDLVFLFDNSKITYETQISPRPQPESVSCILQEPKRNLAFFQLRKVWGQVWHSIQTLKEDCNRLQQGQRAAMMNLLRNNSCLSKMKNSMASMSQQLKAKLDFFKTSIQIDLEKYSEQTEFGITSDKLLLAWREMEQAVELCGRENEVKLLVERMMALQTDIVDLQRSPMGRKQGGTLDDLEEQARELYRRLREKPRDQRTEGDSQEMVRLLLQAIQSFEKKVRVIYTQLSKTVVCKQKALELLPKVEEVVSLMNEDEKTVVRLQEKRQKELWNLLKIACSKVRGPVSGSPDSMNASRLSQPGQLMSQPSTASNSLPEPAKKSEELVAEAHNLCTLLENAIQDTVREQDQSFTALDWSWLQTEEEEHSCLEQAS
Cut-off 3 nM on IC50: below means met, at or above means not met.

| molecule | class.name |
| --- | --- |
| COc1ccc(-n2nc(C(N)=O)c3c2-c2cc(NC(=O)c4cc(N5CCN(C)CC5)ncc4Cl)ccc2CC3)cc1 | not met |
| CN1CCN(c2cc(C(=O)Nc3ccc4c(c3)-c3c(c(C(N)=O)nn3-c3ccc(O)c(Cl)c3)CC4)c(Cl)cn2)CC1 | met |

Q. Confirm or reject: IC50 of CN1CCN(c2cc(C(=O)Nc3ccc4c(c3)-c3c(c(C(N)=O)nn3-c3ccc(Cl)c(O)c3)CC4)c(Cl)cn2)CC1 lies strictly below 3 nM
A. met

Q. Confirm or reject: IC50 of CCOC(=O)Cn1cc(CN2CCN(c3cc(C(=O)Nc4ccc5c(c4)-c4c(c(C(N)=O)nn4-c4cccc(F)c4)CC5)c(Cl)cn3)CC2)cn1 lies strictly below 3 nM
A. not met

Q. Confirm or reject: IC50 of Cc1ccc(-n2nc(C(N)=O)c3c2-c2cc(NC(=O)c4cc(N5CCN(C)CC5)ncc4Cl)ccc2CC3)cc1 lies strictly below 3 nM
A. not met

Q. Confirm or reject: IC50 of CC(C)NC(=O)Cn1cc(CN2CCN(c3cc(C(=O)Nc4ccc5c(c4)-c4c(c(C(N)=O)nn4-c4ccc(F)cc4)CC5)c(Cl)cn3)CC2)cn1 lies strictly below 3 nM
A. met

Q. Confirm or reject: IC50 of N#CCCn1cc(CN2CCN(c3cc(C(=O)Nc4ccc5c(c4)-c4c(c(C(N)=O)nn4-c4ccc(F)cc4)CC5)c(Cl)cn3)CC2)cn1 lies strictly below 3 nM
A. not met

Q. Confirm or reject: IC50 of CN(C)CCCn1cc(CN2CCN(c3cc(C(=O)Nc4ccc5c(c4)-c4c(c(C(N)=O)nn4-c4ccc(F)cc4)CC5)c(Cl)cn3)CC2)cn1 lies strictly below 3 nM
A. not met

Q. Confirm or reject: IC50 of CN(C)C(=O)Cn1cc(CN2CCN(c3cc(C(=O)Nc4ccc5c(c4)-c4c(c(C(N)=O)nn4-c4ccc(F)cc4)CC5)c(Cl)cn3)CC2)cn1 lies strictly below 3 nM
A. met

Q. Confirm or reject: IC50 of COCCN1CCN(c2cc(C(=O)Nc3ccc4c(c3)-c3c(c(C(N)=O)nn3-c3ccc(F)cc3)CC4)c(Cl)cn2)CC1 lies strictly below 3 nM
A. met

Q. Confirm or reject: IC50 of Cn1cc(CN2CCN(c3cc(C(=O)Nc4ccc5c(c4)-c4c(c(C(N)=O)nn4-c4ccc(F)cc4)CC5)c(Cl)cn3)CC2C(=O)O)cn1 (configuration not stated) lies strictly below 3 nM
A. not met

Q. Confirm or reject: IC50 of CN1CCN(c2cc(C(=O)Nc3ccc4c(c3)-c3c(c(C(N)=O)nn3-c3ccc(O)cc3)CC4)c(Cl)cn2)CC1 lies strictly below 3 nM
A. not met

====

biological target: Inhibitor of nuclear factor kappa-B kinase subunit beta (Homo sapiens) (UniProt O14920); test: Binding affinity to human recombinant IKK2 assessed as half life
observed.property: T1/2

Consider the following illustrative entries.
| molecule | value.observed |
| --- | --- |
| C[C@H]1CN(c2cc(C(=O)Nc3ccc4c(c3)-c3c(c(C(N)=O)nn3-c3ccc(F)cc3)CC4)c(Cl)cn2)CCN1Cc1cnn(C)c1 | 6 h |
| NC(=O)c1nn(-c2ccc(F)cc2)c2c1CCc1ccc(NC(=O)c3cc(N4CCN(Cc5cnn(CC(=O)NCCO)c5)CC4)ncc3Cl)cc1-2 | 5 h |
| CN1CCN(c2cc(C(=O)Nc3ccc4c(c3)-c3c(c(C(N)=O)nn3-c3cccc(F)c3)CC4)c(Cl)cn2)CC1 | 2 h |

List T1/2 for every entry below, keeping the order given.
1. N#CCCn1cc(CN2CCN(c3cc(C(=O)Nc4ccc5c(c4)-c4c(c(C(N)=O)nn4-c4ccc(F)cc4)CC5)c(Cl)cn3)CC2)cn1
2. Cc1c(CN2CCN(c3cc(C(=O)Nc4ccc5c(c4)-c4c(c(C(N)=O)nn4-c4ccc(F)cc4)CC5)c(Cl)cn3)CC2)cnn1C

A.
["5 h", "8 h"]

List T1/2 for every entry below, keeping the order given.
1. Cn1cc(CN2CCN(c3cc(C(=O)Nc4ccc5c(c4)-c4c(c(C(N)=O)nn4-c4ccc(F)cc4)CC5)c(Cl)cn3)CC2C(=O)O)cn1 (centres undefined)
2. NC(=O)c1nn(-c2ccc(F)cc2)c2c1CCc1ccc(NC(=O)c3cc(N4CCN(Cc5cnn(CC(=O)N(CCO)CCO)c5)CC4)ncc3Cl)cc1-2
3. COCCOCCCn1cc(CN2CCN(c3cc(C(=O)Nc4ccc5c(c4)-c4c(c(C(N)=O)nn4-c4ccc(F)cc4)CC5)c(Cl)cn3)CC2)cn1
4. CC(C)NC(=O)Cn1cc(CN2CCN(c3cc(C(=O)Nc4ccc5c(c4)-c4c(c(C(N)=O)nn4-c4ccc(F)cc4)CC5)c(Cl)cn3)CC2)cn1

A.
0.3 h
4 h
4 h
5 h

These measurements were taken from ChEMBL document CHEMBL1667819.
